measurement description: Biodistribution of radiometal-DOTA-BBN conjugates in CF1 normal mice
conditions used: 1 hour post-injection
recorded metric: Avg % ID/gm, Pancreas (% ID/gm)
Please state the figure in % ID/gm; there is no need to write the unit.

Look over these answered cases.
- compound: "CSCC[C@H](NC(=O)[C@H](CC(C)C)NC(=O)[C@H](Cc1cnc[nH]1)NC(=O)CNC(=O)[C@@H](NC(=O)[C@H](C)NC(=O)[C@H](Cc1c[nH]c2ccccc12)NC(=O)[C@H](CCC(N)=O)NC(=O)CCNC(=O)CN1CCN(CC(=O)O)CCN(CC(=O)O)CCN(CC(=O)O)CC1)C(C)C)C(N)=O [149Pm-DOTA-β-Ala-BBN[7-14]NH2]"
  reading unit: "% ID/gm"
  Avg % ID/gm, Pancreas: 2.40
- compound: "CSCC[C@H](NC(=O)[C@H](CC(C)C)NC(=O)[C@H](Cc1cnc[nH]1)NC(=O)CNC(=O)[C@@H](NC(=O)[C@H](C)NC(=O)[C@H](Cc1c[nH]c2ccccc12)NC(=O)[C@H](CCC(N)=O)NC(=O)CN1CCN(CC(=O)O)CCN(CC(=O)O)CCN(CC(=O)O)CC1)C(C)C)C(N)=O [177Lu-DOTA-0-BBN[7-14]NH2] [metal not drawn]"
  reading unit: "% ID/gm"
  Avg % ID/gm, Pancreas: 0.18
- compound: "CSCC[C@H](NC(=O)[C@H](CC(C)C)NC(=O)[C@H](Cc1c[nH]cn1)NC(=O)CNC(=O)[C@@H](NC(=O)[C@H](C)NC(=O)[C@H](Cc1c[nH]c2ccccc12)NC(=O)[C@H](CCC(N)=O)NC(=O)CCCCCCCCCCNC(=O)CN1CCN(CC(=O)O)CCN(CC(=O)O)CCN(CC(=O)O)CC1)C(C)C)C(N)=O [177Lu-DOTA-11-Aun-BBN[7-14]NH2] [metal not drawn]"
  reading unit: "% ID/gm"
  Avg % ID/gm, Pancreas: 35.48

Input: Entry CSCC[C@H](NC(=O)[C@H](CC(C)C)NC(=O)[C@H](Cc1cnc[nH]1)NC(=O)CNC(=O)[C@@H](NC(=O)[C@H](C)NC(=O)[C@H](Cc1c[nH]c2ccccc12)NC(=O)[C@H](CCC(N)=O)NC(=O)CCCCCCCNC(=O)CN1CCN(CC(=O)O)CCN(CC(=O)O)CCN(CC(=O)O)CC1)C(C)C)C(N)=O [149Pm-DOTA-8-Aoc-BBN[7-14]NH2] needs its Avg % ID/gm, Pancreas filled in; supply it.
Output: 28.29

Input: Entry CSCC[C@H](NC(=O)[C@H](CC(C)C)NC(=O)[C@H](Cc1cnc[nH]1)NC(=O)CNC(=O)[C@@H](NC(=O)[C@H](C)NC(=O)[C@H](Cc1c[nH]c2ccccc12)NC(=O)[C@H](CCC(N)=O)NC(=O)CCCCCCCNC(=O)CN1CCN(CC(=O)O)CCN(CC(=O)O)CCN(CC(=O)O)CC1)C(C)C)C(N)=O [177Lu-DOTA-8-Aoc-BBN[7-14]NH2] [metal not drawn] needs its Avg % ID/gm, Pancreas filled in; supply it.
Output: 30.83
